B1: CPEB3 Ribozyme (parent)
chain: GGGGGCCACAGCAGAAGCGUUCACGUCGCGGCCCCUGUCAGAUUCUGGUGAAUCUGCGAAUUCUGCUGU

variants of: B1; assay: self-cleavage, relative activity (ratio to wild type); higher = more cleavage; co-transcriptional
Rule: self-cleavage of 0.7 or more gives Fulfilled; anything lower gives Not fulfilled.

Observe how each entry below is paired with its result.
>>> group_label("G17A U26A")
"Not fulfilled"
>>> group_label("G17C")
"Not fulfilled"
>>> group_label("C45G G65C")
"Not fulfilled"
>>> group_label("U44C U62A")
"Fulfilled"
>>> group_label("U38A G50A")
"Fulfilled"

// query Check if self-cleavage >= 0.7 (inclusive). Item: A10U G30U
// result Fulfilled

// query Hi team, for G48A G68U , is the recorded self-cleavage at or above 0.7?
// result Fulfilled

// query Decide: is the reported value of self-cleavage for C33A A59U equal to or greater than 0.7?
// result Not fulfilled

// query Evaluate A13G G68C : self-cleavage at minimum 0.7?
// result Fulfilled

// query Kindly determine if self-cleavage recorded for A23C U64A is above or exactly 0.7.
// result Fulfilled

// query Given the entry A42G U62A , answer whether its self-cleavage meets or surpasses 0.7.
// result Fulfilled

// query Evaluate C9U G37U : self-cleavage at minimum 0.7?
// result Not fulfilled

// query Item G58C C66U with self-cleavage of 0.7 or above?
// result Fulfilled

// query Has G1A G2C a recorded self-cleavage greater than or equal to 0.7?
// result Not fulfilled

// query hey, is self-cleavage for this one >= 0.7? U53G C63G
// result Not fulfilled

// query Does the reported self-cleavage for U21A C35G fall at or above the 0.7 mark?
// result Not fulfilled

// query Does the variant G41C G58C have recorded self-cleavage that is 0.7 or more?
// result Fulfilled

// query Does U21G C63G have a reported self-cleavage of at least 0.7?
// result Not fulfilled

// query Given the entry G11A C27G , answer whether its self-cleavage meets or surpasses 0.7.
// result Not fulfilled

// query Does A51G U55A have a reported self-cleavage of at least 0.7?
// result Fulfilled

// query State whether the measured self-cleavage reaches 0.7, counting equality as reaching it, for A13G A42G
// result Fulfilled
